- target or system: TNKS1 (Homo sapiens, UniProt O95271)
- Sequence (O95271 whole entry): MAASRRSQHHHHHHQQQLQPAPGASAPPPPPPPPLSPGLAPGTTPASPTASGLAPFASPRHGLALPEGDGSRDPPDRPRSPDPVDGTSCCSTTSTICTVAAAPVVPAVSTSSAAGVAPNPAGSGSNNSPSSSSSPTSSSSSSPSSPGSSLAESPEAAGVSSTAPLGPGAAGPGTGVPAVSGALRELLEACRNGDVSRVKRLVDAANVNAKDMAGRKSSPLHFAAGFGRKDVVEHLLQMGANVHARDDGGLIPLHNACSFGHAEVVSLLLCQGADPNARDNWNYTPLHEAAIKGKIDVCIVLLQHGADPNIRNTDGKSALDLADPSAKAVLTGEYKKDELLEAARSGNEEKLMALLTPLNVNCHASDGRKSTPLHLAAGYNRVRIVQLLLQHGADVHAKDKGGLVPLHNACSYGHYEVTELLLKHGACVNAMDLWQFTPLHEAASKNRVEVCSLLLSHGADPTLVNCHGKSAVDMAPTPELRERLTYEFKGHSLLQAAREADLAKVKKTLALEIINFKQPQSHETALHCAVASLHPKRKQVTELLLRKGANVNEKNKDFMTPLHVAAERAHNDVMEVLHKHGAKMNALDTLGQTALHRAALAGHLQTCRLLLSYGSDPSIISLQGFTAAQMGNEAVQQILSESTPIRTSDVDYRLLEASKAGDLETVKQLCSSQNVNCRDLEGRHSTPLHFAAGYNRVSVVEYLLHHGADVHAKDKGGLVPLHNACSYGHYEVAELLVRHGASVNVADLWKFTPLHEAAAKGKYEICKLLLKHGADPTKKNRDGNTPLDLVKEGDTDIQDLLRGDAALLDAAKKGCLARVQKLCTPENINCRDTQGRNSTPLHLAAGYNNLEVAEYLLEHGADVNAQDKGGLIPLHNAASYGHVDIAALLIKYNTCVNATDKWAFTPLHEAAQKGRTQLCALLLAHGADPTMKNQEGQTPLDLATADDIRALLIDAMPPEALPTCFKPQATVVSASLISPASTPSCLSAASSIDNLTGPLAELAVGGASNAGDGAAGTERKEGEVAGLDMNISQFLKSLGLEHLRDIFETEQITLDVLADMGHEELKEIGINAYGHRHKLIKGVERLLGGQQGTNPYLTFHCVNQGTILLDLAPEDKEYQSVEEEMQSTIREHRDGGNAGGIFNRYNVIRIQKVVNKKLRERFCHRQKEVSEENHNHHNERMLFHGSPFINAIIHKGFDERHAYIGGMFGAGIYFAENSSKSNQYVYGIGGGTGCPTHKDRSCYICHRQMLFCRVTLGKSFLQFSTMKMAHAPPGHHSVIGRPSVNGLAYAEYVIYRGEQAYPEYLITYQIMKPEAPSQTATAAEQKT
- assay name: Modified TNKS1 Assay 2 (auto-parsylation, [3H]-NAD+ SPA)
- Format: biochemical
- condition set: 6 nM TNKS1, 96 well
pIC50: −log10 of the molar value.
Label true (1) when pIC50 >= 7; otherwise false (0).

>>> discrete_label("CN(C)CCNC(=O)c1nc[nH]c1C(=O)Nc1ccc(NC(=O)c2ccccc2Cl)c(F)c1")
"true (1)"
>>> discrete_label("O=C(Nc1ccc(NC(=O)c2nc[nH]c2C(=O)NCCCN2CCOCC2)cc1)c1ccccc1Cl")
"false (0)"
>>> discrete_label("COC(=O)c1nc[nH]c1C(=O)Nc1ccc(NC(=O)c2ccccc2Cl)c(OC)c1")
"false (0)"
>>> discrete_label("CS(=O)(=O)c1ccc(C(=O)Nc2ccc(NC(=O)c3[nH]cnc3C(=O)NCCN3CCCCC3)cc2)c(Cl)c1")
"true (1)"
>>> discrete_label("CNC(=O)c1nc[nH]c1C(=O)Nc1ccc(NC(=O)c2cncc(C)c2)cc1")
"false (0)"
>>> discrete_label("CNC(=O)c1nc[nH]c1C(=O)Nc1ccc(NC(=O)c2ccc(OCCN3CCN(C)CC3)cc2Cl)cc1")
"true (1)"
>>> discrete_label("CNC(=O)c1nc[nH]c1C(=O)Nc1ccc(NC(=O)c2ccon2)cc1")
"false (0)"
>>> discrete_label("NC(=O)c1nc[nH]c1C(=O)Nc1ccc(NC(=O)c2ccc(F)cc2Cl)cc1")
"true (1)"
>>> discrete_label("COc1cc(NC(=O)c2[nH]cnc2C(=O)NCCN(C)C)ccc1NC(=O)c1ccc(F)cc1Cl")
"true (1)"
>>> discrete_label("O=C(Nc1ccc(NC(=O)c2[nH]cnc2C(=O)NCCC2CC2)cc1)c1ccc(F)cc1Cl")
"false (0)"
>>> discrete_label("COC(=O)c1nc[nH]c1C(=O)Nc1ccc(NC(=O)c2ccc(F)cc2Cl)c(OC)c1")
"false (0)"
>>> discrete_label("CC(C)(CNC(=O)c1[nH]cnc1C(=O)Nc1ccc(NC(=O)c2ccccc2Cl)cc1)N1CCCCC1")
"true (1)"
>>> discrete_label("O=C(Nc1ccc(NC(=O)c2[nH]cnc2C(=O)NCC(F)(F)F)cc1)c1ccc(F)cc1Cl")
"true (1)"
>>> discrete_label("O=C(Nc1ccc(NC(=O)c2nc[nH]c2C(=O)NCCN2CCC(F)(F)C2)cc1)c1ccc(F)cc1Cl")
"true (1)"
>>> discrete_label("CNC(=O)c1nc[nH]c1C(=O)Nc1ccc(NC(=O)c2ccc(OC(F)(F)F)cc2F)cc1")
"false (0)"
>>> discrete_label("CCNC(=O)c1nc[nH]c1C(=O)Nc1ccc(NC(=O)c2ncccc2Cl)cc1")
"false (0)"
>>> discrete_label("CN(C)C(=O)c1nc[nH]c1C(=O)Nc1ccc(NC(=O)c2ccc(F)cc2Cl)cc1")
"false (0)"
>>> discrete_label("O=C(Nc1ccc(NC(=O)c2nc[nH]c2C(=O)NCCF)cc1)c1ccccc1Cl")
"false (0)"
>>> discrete_label("CNC(=O)c1nc[nH]c1C(=O)Nc1ccc(NC(=O)c2cc(C#N)ccc2F)cc1")
"false (0)"

====

- target or system: UniProt Q9H2K2
- assay name: TNKS2 Assay 1 (TNKS2 Histone Ribosylation Assay Kit, biotin-labeled NAD+)
- Assay type: biochemical
- condition set: chemiluminescent readout, 384 well, Table 2
pIC50: −log10 of the molar value.
measurement kind: pIC50

>>> value_measured("CNC(=O)c1nc[nH]c1C(=O)Nc1ccc(NC(=O)c2ccc(N(C)C)cc2Cl)cc1")
7.05
>>> value_measured("CNC(=O)c1nc[nH]c1C(=O)Nc1ccc(NC(=O)c2ccccc2Cl)cc1")
7.40
>>> value_measured("CC(C)NC(=O)c1nc[nH]c1C(=O)Nc1ccc(NC(=O)c2ccc(F)cc2Cl)cc1")
6.64
>>> value_measured("CNC(=O)c1nc[nH]c1C(=O)Nc1ccc(NC(=O)c2ccc(OCCN3CCN(C)CC3)cc2Cl)cc1")
7.22
>>> value_measured("CNC(=O)c1ncoc1C(=O)Nc1ccc(NC(=O)c2ccc(F)cc2Cl)cc1")
7.05
>>> value_measured("O=C(Nc1ccc(NC(=O)c2[nH]cnc2C(=O)NCC(F)(F)F)cc1)c1ccc(F)cc1Cl")
7.15
>>> value_measured("CNC(=O)c1nc[nH]c1C(=O)Nc1ccc(NC(=O)c2cccc(Cl)c2Cl)cc1")
7.70
>>> value_measured("CC(NC(=O)c1ncoc1C(=O)Nc1ccc(NC(=O)c2ccc(F)cc2Cl)cc1)c1ccccc1 (stereo not shown)")
5.15
>>> value_measured("CNC(=O)c1nc[nH]c1C(=O)Nc1ccc(NC(=O)c2ccc(F)cc2Cl)nc1")
7.40
>>> value_measured("CNC(=O)c1nc[nH]c1C(=O)Nc1ccc(NC(=O)c2c(Cl)cccc2Cl)cc1")
6.80
>>> value_measured("CNC(=O)c1nc[nH]c1C(=O)Nc1ccc(NC(=O)c2ccc(Cl)cc2Cl)cc1")
7.52
>>> value_measured("CN(C)C(=O)c1nc[nH]c1C(=O)Nc1ccc(NC(=O)c2ccc(F)cc2Cl)cc1")
6.30
>>> value_measured("CCC(C)NC(=O)c1ncoc1C(=O)Nc1ccc(NC(=O)c2ccc(F)cc2Cl)cc1 (stereo not shown)")
4.72
>>> value_measured("CNC(=O)c1nc[nH]c1C(=O)Nc1ccc(NC(=O)c2c(-c3ccccc3)nn(C)c2Cl)cc1")
5.66
>>> value_measured("CNC(=O)c1nc[nH]c1C(=O)Nc1ccc(NC(=O)c2ccncc2Cl)cc1")
7.30

====

- target or system: TNKS2 (Homo sapiens)
- assay name: Modified TNKS2 Assay 3 (BPS kit #80578, biotin-NAD+, 96 well)
- Assay type: biochemical
- condition set: human TNKS2, BPS kit #80578, 96 well
- Method: The potency of the compounds against human TNKS2 according to the invention was assessed using a commercially available biotin/streptavidin binding assay kits from BPS Bioscience, San Diego, USA (Catalog #80578 for TNKS2). The incorporation of a biotin-labeled NAD+ during the […] catalyzed ribosylation of a suitable protein substrate was detected using with a streptavidin-HRP coupled chemi-luminescent readout. The intensity of the readout signal is proportional to the incorporated NAD^+. […]
pIC50: −log10 of the molar value.
Label Criterion met when pIC50 >= 8; otherwise Criterion not met.

>>> discrete_label("Cc1nc(C(=O)Nc2ccc(NC(=O)c3ccc(F)cc3Cl)cc2)c(C(=O)NCCN2CCCCC2)[nH]1")
"Criterion met"
>>> discrete_label("O=C(Nc1ccc(NC(=O)c2nc[nH]c2C(=O)NCC2CCOCC2)cc1)c1ccc(F)cc1Cl")
"Criterion not met"
>>> discrete_label("O=C(Nc1ccc(NC(=O)c2nc[nH]c2C(=O)NCCN2CC[C@@H](F)C2)cc1)c1ccc(F)cc1Cl")
"Criterion not met"
>>> discrete_label("CNC(=O)c1nc[nH]c1C(=O)Nc1ccc(NC(=O)c2ccc(C)cc2Cl)cc1")
"Criterion not met"
>>> discrete_label("O=C(Nc1ccc(NC(=O)c2nc[nH]c2C(=O)NCC2CCOC2)cc1)c1ccc(F)cc1Cl (centres unmarked)")
"Criterion not met"
>>> discrete_label("O=C(Nc1ccc(NC(=O)c2[nH]cnc2C(=O)NCCN2CCCCC2)cc1)c1ccc(F)cc1Cl")
"Criterion met"

====

- target or system: UniProt:Q9H2K2
- Sequence (Q9H2K2 1-1166): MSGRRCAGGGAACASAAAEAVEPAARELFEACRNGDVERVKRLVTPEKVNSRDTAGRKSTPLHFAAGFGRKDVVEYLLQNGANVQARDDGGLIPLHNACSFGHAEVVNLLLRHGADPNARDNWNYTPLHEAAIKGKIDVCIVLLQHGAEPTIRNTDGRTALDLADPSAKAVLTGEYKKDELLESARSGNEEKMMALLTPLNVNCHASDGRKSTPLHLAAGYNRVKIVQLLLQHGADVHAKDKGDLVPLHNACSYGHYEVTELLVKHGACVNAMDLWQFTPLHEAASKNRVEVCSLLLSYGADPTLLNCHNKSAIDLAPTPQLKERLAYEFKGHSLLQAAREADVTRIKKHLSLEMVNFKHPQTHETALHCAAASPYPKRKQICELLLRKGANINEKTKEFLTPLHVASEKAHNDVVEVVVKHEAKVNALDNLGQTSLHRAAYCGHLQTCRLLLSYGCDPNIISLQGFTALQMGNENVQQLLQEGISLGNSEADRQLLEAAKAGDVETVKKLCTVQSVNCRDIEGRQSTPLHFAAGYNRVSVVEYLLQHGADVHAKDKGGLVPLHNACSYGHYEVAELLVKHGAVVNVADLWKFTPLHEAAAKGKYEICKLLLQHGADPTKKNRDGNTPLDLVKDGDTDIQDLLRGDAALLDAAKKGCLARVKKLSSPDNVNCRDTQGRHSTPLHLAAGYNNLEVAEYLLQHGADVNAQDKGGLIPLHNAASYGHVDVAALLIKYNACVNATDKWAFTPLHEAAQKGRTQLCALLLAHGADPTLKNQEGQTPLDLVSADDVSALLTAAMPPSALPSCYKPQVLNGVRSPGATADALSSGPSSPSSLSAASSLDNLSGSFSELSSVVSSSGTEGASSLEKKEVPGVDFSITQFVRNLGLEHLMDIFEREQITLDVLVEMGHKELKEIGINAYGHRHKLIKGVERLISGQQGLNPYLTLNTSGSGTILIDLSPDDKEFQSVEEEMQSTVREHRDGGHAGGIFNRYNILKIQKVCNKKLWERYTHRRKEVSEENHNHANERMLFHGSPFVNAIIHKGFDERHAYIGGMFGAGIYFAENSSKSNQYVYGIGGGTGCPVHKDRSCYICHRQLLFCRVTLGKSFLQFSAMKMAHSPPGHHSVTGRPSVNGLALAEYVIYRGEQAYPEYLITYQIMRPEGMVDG
- assay name: Modified TNKS2 Assay 3 (BPS kit #80578, biotin-NAD+, 96 well)
- Format: biochemical
- condition set: human TNKS2, BPS kit #80578, 96 well
pIC50: −log10 of the molar value.
The entries below come with measured pIC50 values attached.
measurement kind: pIC50

>>> value_measured("O=C(Nc1ccc(NC(=O)c2[nH]cnc2C(=O)NCCN2CCCCC2)cc1)c1ccc(F)cc1 [Example 33]")
"< 6.30"
>>> value_measured("CC(CN1CCOCC1)NC(=O)c1[nH]cnc1C(=O)Nc1ccc(NC(=O)c2ccc(F)cc2)cc1 (single isomer, unassigned; enantiomer 2) [Example 296]")
"< 6.30"
>>> value_measured("O=C(Nc1ccc(NC(=O)c2[nH]cnc2C(=O)N2CC(F)C2)cc1)c1cc(F)c(F)cc1Cl [Example 47]")
"< 6.30"
